Origin of measurements: PubChem BioAssay (NCI)

- measurement description: NCI Yeast Anticancer Drug Screen. Data for the rad50 strain (AID 155);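 also: 0% = growth of vehicle-only cultures of the same strain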
- cond: S. cerevisiae rad50 strain growth inhibition; at 50.0 µM; active compounds read high
Compounds without any hit were thinned out: in the full panel of roughly 79,000, 15% have a hit. The source made the active and inactive calls. Rule as the data show it: active = growth inhibition above about 70%; inactive = the rest.
Below, each of the molecules is paired with its reported growth inhibition value.

A selection of reference data follows.
COc1cc(Cl)ccc1NC(=O)COc1ccc(Cl)cc1; 4.55% (inactive)
CCC(C)CC(O)CC(C)C (configuration not stated); 13.9% (inactive)

Provide measured growth inhibition value, entry: CCC(CC)(C[NH-])C[NH-].[Cl][Pt+2][Cl] 10% (inactive)

Provide measured growth inhibition value, entry: CCSC(OC(C)=O)C(Nc1ccc([N+](=O)[O-])cc1[N+](=O)[O-])C(OC(C)=O)C(OC(C)=O)C(COC(C)=O)OC(C)=O (configuration not stated) 23.7% (inactive)

Provide measured growth inhibition value, entry: CC(C)NCCN 17.4% (inactive)

Provide measured growth inhibition value, entry: c1ccc(CCc2nccc3ccccc23)cc1 8.55% (inactive)

Provide measured growth inhibition value, entry: Nc1cc2c(cc1Br)-c1cc(Cl)c(Cl)cc1C2=O -5.75% (inactive)

Provide measured growth inhibition value, entry: COc1cc(C(=O)O)cc(OC)n1 10.8% (inactive)

Provide measured growth inhibition value, entry: COc1ccc(/C=C/C(=O)C(C)(CN(C)C)CN(C)C)cc1 0.95% (inactive)

Provide measured growth inhibition value, entry: COc1cc(C2NC(=O)C(C)(C)O2)cc(OC)c1OC (configuration not stated) -2.05% (inactive)

Provide measured growth inhibition value, entry: N=C(N)SCCCN -1.7% (inactive)

Provide measured growth inhibition value, entry: C/C([O-])=C(/c1nc(-c2ccc([N+](=O)[O-])o2)no1)[n+]1cc(C)ccc1C 19.3% (inactive)

----------
- measurement description: NCI Yeast Anticancer Drug Screen. Data for the bub3 strain (AID 167)
- cond: S. cerevisiae bub3 mutant strain, at 50.0 µM, active compounds read high
The panel holds about 79,000 compounds, 15% with a hit somewhere; the sample as a whole holds those more often.
Below, each of the compounds is paired with its reported growth inhibition value.
Your answer is read as %, so omit the unit and give the number.

CCOC(=O)C1CC(=O)NC(N)=N1 (stereo not drawn); -8.2
O=[N+]([O-])c1ccc(C=Nc2ccccc2)cc1; 1
COC(=O)CCC(=O)c1ccc(OC)cc1; 10.2
CN(C)c1ccc(C2NC(c3ccccc3)c3c(ccc4ccccc34)O2)cc1 (stereo not drawn); 2.5
Nc1ncnc(N2CCOCC2)n1; -14.9

Provide measured growth inhibition value, entry: COc1ccc(OC)c(NC(=O)OCc2ccc3c(c2)OCO3)c1 26.9

Provide measured growth inhibition value, entry: CN(C)C(=O)C1C2C=CC(CCC2)C1C(=O)N(C)C (stereo not drawn) 15.7

Provide measured growth inhibition value, entry: CC(=O)OC1CCC23COC(CC(C)C2C)C3(Cl)C1 (stereo not drawn) -11.2

Provide measured growth inhibition value, entry: COc1ccc(C(O)c2ccc(OC)cc2)cc1 -22.3

Provide measured growth inhibition value, entry: Nc1cccc(/C=C(/C(=O)O)c2ccc(Cl)cc2)c1 -15.6

Provide measured growth inhibition value, entry: Brc1ccc2oc3ccccc3c2c1 6.75

Provide measured growth inhibition value, entry: CN=C(N)SCCCSC(N)=NC 15.6

Provide measured growth inhibition value, entry: CC(C(=O)O)c1ncnn1-c1ccccc1 (stereo not drawn) 10.6

Provide measured growth inhibition value, entry: CCC(=O)Nc1cc(C)ccc1Cl 5.9

Provide measured growth inhibition value, entry: Cc1ccc(NC(=O)N2CC2(C)C)cc1NC(=O)N1CC1(C)C 1.2

Provide measured growth inhibition value, entry: CCC(O)(c1ccccc1)c1ccccc1 -19.8

Provide measured growth inhibition value, entry: Cc1ccccc1NCC#N 10

Provide measured growth inhibition value, entry: CC(=O)[C@@]1(c2ccccc2)N(C(=O)c2ccccc2)[C@@]1(C)C(=O)c1ccccc1 3.85

Provide measured growth inhibition value, entry: O=C1NC2Cc3ccccc3C(C2)O1 (stereo not drawn) 15.9

Provide measured growth inhibition value, entry: Cn1c(=O)c(C#N)c2n(C)c3ccccc3n2c1=O -36.1
